Listed here: items and their measured CC50 at 7 days.
Experiment: In vitro cytotoxicity assay (MTT cell viability) in HepG2 cells
Type: cell-based, human
Details: human
METRIC: CC50 at 7 days

* Cc1cc(NC(=O)c2c(C)c(C(=O)C(=O)NC(CC(C)C)c3nn[nH]n3)n(C)c2C)ccc1F (centres unmarked) | > 30 µM
* O=C(N[C@H]1COC[C@@H]1O)C(=O)c1c(Cl)c(C(=O)Nc2ccc(F)c(Cl)c2)c2n1CCCC2 | > 30 µM
* Cc1cc(NC(=O)c2c(C)c(C(=O)C(=O)NC3(CO)CC(F)(F)C3)n(C)c2Cl)ccc1F | 5 to 30 µM
* Cc1cc(NC(=O)c2c(C)c(C(=O)C(=O)N[C@@H]3CCC[C@H]3O)n(C)c2C)cnc1F | > 30 µM
* Cc1cc(NC(=O)c2c(C)c(C(=O)C(=O)NC3(C(N)=O)CCCC3)n(C)c2C)ccc1F | > 30 µM
